- Tested target: Old Yellow Enzyme (Saccharomyces pastorianus, UniProt Q02899)
- Construct: recombinant OYE I (pET-3b, E. coli) or enzyme isolated from brewer's bottom yeast (mix of close OYE isoforms)
- Sequence (Q02899 2-400): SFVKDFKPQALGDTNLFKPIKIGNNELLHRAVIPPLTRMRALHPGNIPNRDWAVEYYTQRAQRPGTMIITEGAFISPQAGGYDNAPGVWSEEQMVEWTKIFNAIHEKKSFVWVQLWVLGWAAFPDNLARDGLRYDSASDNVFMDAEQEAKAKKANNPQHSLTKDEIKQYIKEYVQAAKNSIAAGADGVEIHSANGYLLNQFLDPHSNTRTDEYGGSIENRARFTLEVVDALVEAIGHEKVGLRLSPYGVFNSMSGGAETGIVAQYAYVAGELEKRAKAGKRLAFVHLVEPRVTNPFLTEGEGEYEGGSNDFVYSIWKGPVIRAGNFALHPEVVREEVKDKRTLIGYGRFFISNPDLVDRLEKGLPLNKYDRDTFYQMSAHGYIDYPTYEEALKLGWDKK
- Assay summary: p-Cl-phenol binding to native Old Yellow Enzyme (charge transfer complex)

- Compound structure: "Oc1ccc(Cl)cc1"
  Kd: "~1000 nM"

Numbers sourced from patent US6046043A.
